Target: PDE4B: The catalytic domain of human PDE4B from S152-S528 (Homo sapiens)
Construct: His6 (N); thrombin cleavage site (N); made in house; host or cells: E. coli
Sequence (Q07343 with tags, fused parts or gaps): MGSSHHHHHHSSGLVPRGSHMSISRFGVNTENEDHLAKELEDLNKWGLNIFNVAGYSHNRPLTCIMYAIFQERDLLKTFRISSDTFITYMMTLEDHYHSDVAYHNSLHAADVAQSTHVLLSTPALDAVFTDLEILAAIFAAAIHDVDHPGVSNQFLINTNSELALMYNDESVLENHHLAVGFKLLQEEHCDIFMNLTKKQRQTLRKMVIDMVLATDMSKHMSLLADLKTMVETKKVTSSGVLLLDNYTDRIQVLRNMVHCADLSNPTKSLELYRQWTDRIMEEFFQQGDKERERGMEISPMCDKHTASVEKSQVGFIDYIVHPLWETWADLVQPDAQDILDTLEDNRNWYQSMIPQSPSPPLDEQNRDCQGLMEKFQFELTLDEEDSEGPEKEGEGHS
Assay: PDE4 IC50 determination by Scintillation Proximity Assay, PDE4B
Assay type: biochemical
Settings: Table 3A, Formula III compounds; read-out: IC50 PDE4B
Experimental: IC50s were determined by Scintillation Proximity Assay (SPA). The principle of the assay is based on the fact that cAMP, the PDE4 substrate, binds weakly to Yittrium Silicate SPA beads, whereas AMP, the product of PDE4 hydrolysis binds strongly. Thus, the extent of PDE4 hydrolysis of a sample of [^3H]cAMP can be measured because only the [^3H]AMP produced by PDE4 hydrolysis will bind to the SPA beads and produce a scintillation signal. PDE4 enzymes used for IC50 assays were: […]
IC50: recorded values

>>> result("Cc1nccc(-c2cccc(S(=O)(=O)Nc3cccc4cccnc34)c2)n1")
"< 10 µM"
>>> result("COc1ccc(NS(=O)(=O)c2cccc(-c3ccnc(C)n3)c2)c2ncccc12")
"< 10 µM"
>>> result("Cc1ccc2cccnc2c1NS(=O)(=O)c1ccc(-c2cc(C(F)(F)F)on2)s1")
"> 10 µM"

Q. For PDE4B: The catalytic domain of human PDE4B from S152-S528 (Homo sapiens), provide IC50 of Cc1ccc2cccnc2c1NS(=O)(=O)c1ccc(-c2ccon2)s1 please.
A. > 10 µM

Q. For PDE4B: The catalytic domain of human PDE4B from S152-S528 (Homo sapiens), provide IC50 of O=S(=O)(Nc1cccc2cccnc12)c1ccc(S(=O)(=O)c2ccccc2)s1 please.
A. > 10 µM

Q. For PDE4B: The catalytic domain of human PDE4B from S152-S528 (Homo sapiens), provide IC50 of O=S(=O)(Nc1cccc2cccnc12)c1ccc(Br)s1 please.
A. > 10 µM

Q. For PDE4B: The catalytic domain of human PDE4B from S152-S528 (Homo sapiens), provide IC50 of COc1cc(NS(=O)(=O)c2ccc(Cl)s2)c2ncccc2c1 please.
A. > 10 µM

Q. For PDE4B: The catalytic domain of human PDE4B from S152-S528 (Homo sapiens), provide IC50 of O=S(=O)(Nc1cc(Br)cc2cccnc12)c1ccccc1 please.
A. > 10 µM

Q. For PDE4B: The catalytic domain of human PDE4B from S152-S528 (Homo sapiens), provide IC50 of COc1cc(NS(=O)(=O)c2ccc(Br)s2)c2ncccc2c1 please.
A. > 10 µM

====

pIC50: recorded values
biological target: full-length human PDE4B2 isozyme (Homo sapiens); construct: The full-length human PDE4B2 isozyme; His6 (N); TEV cleavage site (N); made in house; host or cells: baculovirus infected insect cells (unpurified lysate); assay: PDE4 IC50 determination by Scintillation Proximity Assay, PDE4B2; format: biochemical; conditions: Table 1B, Formula I compounds; read-out: IC50 PDE4B2
Sequence (Q07343 1-564 isoform Q07343-2): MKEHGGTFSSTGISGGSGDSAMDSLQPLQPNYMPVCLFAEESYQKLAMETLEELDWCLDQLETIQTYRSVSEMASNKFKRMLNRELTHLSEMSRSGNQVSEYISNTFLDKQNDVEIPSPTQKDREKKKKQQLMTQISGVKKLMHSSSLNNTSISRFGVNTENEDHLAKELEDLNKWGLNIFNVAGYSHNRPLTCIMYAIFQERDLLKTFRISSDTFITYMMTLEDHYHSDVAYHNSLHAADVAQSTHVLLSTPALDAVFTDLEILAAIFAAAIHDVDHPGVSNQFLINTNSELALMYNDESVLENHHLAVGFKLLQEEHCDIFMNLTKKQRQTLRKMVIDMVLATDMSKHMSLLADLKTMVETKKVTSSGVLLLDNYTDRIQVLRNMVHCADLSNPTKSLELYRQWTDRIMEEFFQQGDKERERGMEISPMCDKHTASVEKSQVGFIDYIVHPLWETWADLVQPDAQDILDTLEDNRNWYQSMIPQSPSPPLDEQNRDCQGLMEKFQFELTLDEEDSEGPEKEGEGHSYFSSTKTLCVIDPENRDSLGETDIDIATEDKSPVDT
pIC50: −log10 of the molar value.

Examples with their reported pIC50 follow.
>>> result("N#Cc1c(Nc2ccccc2)sc(C(=O)c2ccccc2)c1N [Compound 1-16]")
"< 5.00"
>>> result("COc1cccc(CNc2sc(C(=O)c3cc(-c4ccccc4)no3)c(N)c2C#N)c1 [Compound 1-216]")
"< 5.00"
>>> result("COc1ccc(C(=O)c2sc(Nc3ccccc3)c(C#N)c2N)cc1 [Compound 1-31]")
"> 5.00"

Next:
Q. Query (compound): CC(C)Nc1sc(C(=O)c2cc(-c3ccc(Cl)c(Cl)c3)no2)c(N)c1C#N [Compound 1-225] ; field requested: pIC50
A. > 5.00
